- measurement-notes: Brain penetration after single subcutaneous injection
- Type: in vivo
- condition-context: mouse, brain and serum, sc; 40 mg/kg single subcutaneous injection, Swiss mice, 30 min to 24 h, n=3; read-out: brain-to-plasma ratio calculated from the area under the concentration time curves
quantity-kind: Kp

[[record]]
molecule = "C[C@H]1c2cccc(O)c2C(=O)C2=C(O)C3C(=O)C(C(N)=O)=C(O)C[C@@H]3[C@@H](O)[C@@H]21 (stereo partly drawn)"
observed = 0.21

[[record]]
molecule = "NC(=O)C1=C(O)CC2CC3C(=C(O)C2C1=O)C(=O)c1c(O)ccc(Cl)c1[C@H]3O (stereo partly drawn)"
observed = 0.27

[[record]]
molecule = "C[C@H]1c2cccc(O)c2C(=O)C2=C(O)[C@]3(O)C(=O)C(C(N)=O)=C(O)[C@@H](N(C)C)[C@@H]3[C@@H](O)[C@@H]21"
observed = 0.11


----------
- System: Gram+ and Gram- bacteria (S. aureus, E. coli, E. faecalis, P. aeruginosa)
- measurement-notes: Antibiotic activity, summary over the bacterial strains (Examples 3 and 7)
- Type: cell-based
- Set-up: key: low: Weak antibiotic activity on only 1 of the 3 bacterial strains (i.e. S aureus); high: Strong antibiotic activity on all 3 bacterial strains; Significant antibiotic activity on two bacterial strains
- condition-context: summary over bacterial strains
quantity-kind: Antibiotic activity

[[record]]
molecule = "C[C@H]1c2cccc(O)c2C(=O)C2=C(O)[C@]3(O)C(=O)C(C(N)=O)=C(O)C[C@@H]3[C@@H](O)[C@@H]21"
observed = "low"

[[record]]
molecule = "CC1c2ccc(-c3ccccc3)c(O)c2C(=O)C2=C(O)C3(O)C(=O)C(C(N)=O)=C(O)CC3[C@@H](O)C21 (some centres unmarked)"
observed = "low"

[[record]]
molecule = "CC1(O)c2c(Cl)ccc(O)c2C(=O)C2=C(O)C3C(=O)C(C(N)=O)=C(O)CC3CC21 (centres unmarked) [Compound of formula (E)]"
observed = "low"

[[record]]
molecule = "CN(C)[C@@H]1C(O)=C(C(N)=O)C(=O)[C@@]2(O)C(O)=C3C(=O)c4c(O)ccc(Cl)c4[C@@](C)(O)[C@H]3C[C@@H]12"
observed = "high"

[[record]]
molecule = "NC(=O)C1=C(O)CC2CC3C(=C(O)C2C1=O)C(=O)c1c(O)ccc(Cl)c1[C@H]3O (some centres unmarked)"
observed = "low^#"

[[record]]
molecule = "C[C@H]1c2cccc(O)c2C(=O)C2=C(O)[C@]3(O)C(=O)C(C(N)=O)=C(O)[C@@H](N(C)C)[C@@H]3[C@@H](O)[C@@H]21"
observed = "high"


----------
- tested-system: UniProtKB P37840
- measurement-notes: alpha-synuclein aggregation, thioflavin T (ThT) fluorescence
- Assay type: biochemical
- condition-context: 20 μM
quantity-kind: Anti aggregant activity at 20 μM

[[record]]
compound = "C[C@H]1c2cccc(O)c2C(=O)C2=C(O)[C@]3(O)C(=O)C(C(N)=O)=C(O)C[C@@H]3[C@@H](O)[C@@H]21"
observed = "yes"

[[record]]
compound = "CN(C)[C@@H]1C(O)=C(C(N)=O)C(=O)[C@@]2(O)C(O)=C3C(=O)c4c(O)ccc(Cl)c4[C@@](C)(O)[C@H]3C[C@@H]12"
observed = "yes"

[[record]]
compound = "NC(=O)C1=C(O)C[C@@H]2C[C@@H]3Cc4cccc(O)c4C(=O)C3=C(O)[C@]2(O)C1=O [Compound of formula (F), incyclinide]"
observed = "yes"

[[record]]
compound = "CC1(O)c2c(Cl)ccc(O)c2C(=O)C2=C(O)C3C(=O)C(C(N)=O)=C(O)CC3CC21 (stereo not drawn) [Compound of formula (E)]"
observed = "yes"

[[record]]
compound = "CC1c2ccc(-c3ccccc3)c(O)c2C(=O)C2=C(O)C3(O)C(=O)C(C(N)=O)=C(O)CC3[C@@H](O)C21 (stereo partly drawn)"
observed = "yes"

[[record]]
compound = "CN(C)[C@@H]1C(O)=C(C(N)=O)C(=O)[C@@]2(O)C(O)=C3C(=O)c4c(O)ccc(Cl)c4[C@@H](O)C3CC12 (stereo partly drawn)"
observed = "yes"

[[record]]
compound = "C[C@H]1c2cccc(O)c2C(=O)C2=C(O)C3C(=O)C(C(N)=O)=C(O)C[C@@H]3[C@@H](O)[C@@H]21 (stereo partly drawn)"
observed = "yes"

[[record]]
compound = "C[C@H]1c2cccc(O)c2C(=O)C2=C(O)[C@]3(O)C(=O)C(C(N)=O)=C(O)[C@@H](N(C)C)[C@@H]3[C@@H](O)[C@@H]21"
observed = "yes"

[[record]]
compound = "NC(=O)C1=C(O)CC2CC3C(=C(O)C2C1=O)C(=O)c1c(O)ccc(Cl)c1[C@H]3O (stereo partly drawn)"
observed = "yes"

